target: UniProt P10635; assay: Inhibition of Cytochrome P450 2D6 in human liver microsomes; assay type: in vitro ADME; settings: 30 minutes incubation with test compound, substrate dextromethorphan 10 μM, read-out: CYP2D6 IC50
Sequence (P10635 whole entry): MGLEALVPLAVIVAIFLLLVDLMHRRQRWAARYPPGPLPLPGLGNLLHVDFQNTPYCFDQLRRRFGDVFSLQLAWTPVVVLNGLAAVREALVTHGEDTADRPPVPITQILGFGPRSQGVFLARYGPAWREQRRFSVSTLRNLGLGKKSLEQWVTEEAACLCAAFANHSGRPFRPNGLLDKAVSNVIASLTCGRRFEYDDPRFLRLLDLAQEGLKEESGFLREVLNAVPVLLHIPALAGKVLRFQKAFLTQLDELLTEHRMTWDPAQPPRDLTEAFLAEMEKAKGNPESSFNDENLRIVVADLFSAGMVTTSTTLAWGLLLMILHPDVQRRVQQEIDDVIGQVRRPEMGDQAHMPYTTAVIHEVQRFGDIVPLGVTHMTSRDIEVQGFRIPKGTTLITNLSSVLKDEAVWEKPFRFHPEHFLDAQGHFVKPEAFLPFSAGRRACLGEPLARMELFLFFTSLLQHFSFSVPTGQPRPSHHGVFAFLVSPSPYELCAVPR
measurementLabel: IC50 (nM)
Give the quantity in nM, number only.

GET IC50 | system: UniProt P10635 | item: O=C(/N=C(/Nc1cc(F)cc(Cl)c1)Nc1cc(C(F)(F)F)[nH]n1)c1cccc(Cl)c1
3200

Alright, here's another molecule for you.
GET IC50 | system: UniProt P10635 | item: O=C(/N=C(/Nc1cccc(Cl)c1)Nc1cc(C(F)(F)F)[nH]n1)c1cccc(Cl)c1 [Compound 2, reference compound]
1100
